Measured values drawn from patent US20260193293A1 for this set.

# Measurement target: Sushi domains (SD1/2) protein of the GABAB1a (GB1a) subunit, recombinant
# Sequence (Q9Z0U4 29-158): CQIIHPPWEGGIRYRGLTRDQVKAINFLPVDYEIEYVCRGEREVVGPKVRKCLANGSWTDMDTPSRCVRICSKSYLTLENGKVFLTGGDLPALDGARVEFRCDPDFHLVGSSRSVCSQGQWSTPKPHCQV
# Assay explanation: FP competition
Non-standard residues stand in square brackets, D forms with d. NMeW = CN[C@@H](Cc1c[nH]c2ccccc12)C(=O)O; Phe(4-NH2) = Nc1ccc(C[C@H](N)C(=O)O)cc1
Quantity name: log10 of Ki (log10 of the value in nM)
For clarity, the numbers are log10 values of Ki expressed in nM.

Before answering, review these 5 worked examples.
Ac-EDDSDVWWGGADHD-NH2 :: 2.87
Ac-SDVWWGGADTDYAD-NH2 :: 3.47
Ac-RRRRRRRREDDDWIDWGPTSDDD-NH2 [R8-17 (Ac-…-NH2)] :: 1.76
Ac-EDDADVWWGGADTD-NH2 :: 2.82
Ac-PWAIVWGATVSRED-NH2 :: 3.18

Query: Identify log10 of Ki associated with the binder `Ac-PWAAVWGPTVSRED-NH2`
Result: 4.67

Query: Identify log10 of Ki associated with the binder Ac-EDDSDVWW[Phe(4-NH2)]GADTD-NH2 (SMILES CC(=O)N[C@@H](CCC(=O)O)C(=O)N[C@@H](CC(=O)O)C(=O)N[C@@H](CC(=O)O)C(=O)N[C@@H](CO)C(=O)N[C@@H](CC(=O)O)C(=O)N[C@H](C(=O)N[C@@H](Cc1c[nH]c2ccccc12)C(=O)N[C@@H](Cc1c[nH]c2ccccc12)C(=O)N[C@@H](Cc1ccc(N)cc1)C(=O)NCC(=O)N[C@@H](C)C(=O)N[C@@H](CC(=O)O)C(=O)N[C@H](C(=O)N[C@@H](CC(=O)O)C(N)=O)[C@@H](C)O)C(C)C) [EDDSDVWW(Aphe)GADTD]
Result: 2.00

Query: Identify log10 of Ki associated with the binder `Ac-DSDVWWGGADTDYAD-NH2`
Result: 3.18

Query: Identify log10 of Ki associated with the binder Ac-ETEFIA[NMeW]GPTGDED-NH2 (SMILES CC[C@H](C)[C@H](NC(=O)[C@H](Cc1ccccc1)NC(=O)[C@H](CCC(=O)O)NC(=O)[C@@H](NC(=O)[C@H](CCC(=O)O)NC(C)=O)[C@@H](C)O)C(=O)N[C@@H](C)C(=O)N(C)[C@@H](Cc1c[nH]c2ccccc12)C(=O)NCC(=O)N1CCC[C@H]1C(=O)N[C@H](C(=O)NCC(=O)N[C@@H](CC(=O)O)C(=O)N[C@@H](CCC(=O)O)C(=O)N[C@@H](CC(=O)O)C(N)=O)[C@@H](C)O) [ETEFIA(N-Me-W)GPTGDED]
Result: 1.66
